- TARGET_OR_SYSTEM: AT1R (Homo sapiens, UniProt P30556)
- Sequence (P30556 whole entry): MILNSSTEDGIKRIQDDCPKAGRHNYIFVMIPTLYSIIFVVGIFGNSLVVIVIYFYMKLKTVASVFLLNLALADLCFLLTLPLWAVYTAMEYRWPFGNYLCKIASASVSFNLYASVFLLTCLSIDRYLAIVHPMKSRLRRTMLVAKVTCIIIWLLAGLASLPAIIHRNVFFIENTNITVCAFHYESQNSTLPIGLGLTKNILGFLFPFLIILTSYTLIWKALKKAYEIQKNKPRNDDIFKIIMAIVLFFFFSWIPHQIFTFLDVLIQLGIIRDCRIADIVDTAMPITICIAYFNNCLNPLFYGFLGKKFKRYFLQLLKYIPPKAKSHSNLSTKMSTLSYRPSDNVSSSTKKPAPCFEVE
- PROTOCOL_SUMMARY: AT1R displacement assay with radiolabeled Ang II
- MEASUREMENT_CONTEXT: displacement of radiolabeled Ang II or analogs; read-out: EC50 displacing Ang II at the AT1 receptor
METRIC: EC50

Look up EC50 for this compound: "CCCCOC(=O)NS(=O)(=O)c1ccc(OC(F)(F)F)cc1-c1ccc(Cn2ccnc2)cn1"
> 10 µM

###

- Test system: MDA MB 231
- PROTOCOL_SUMMARY: MTT cellular viability of MDA MB 231 breast cancer cell line
- Type: cell-based
- MEASUREMENT_CONTEXT: Homo sapiens, MDA-MB-231; 48 hours, MTT; read-out: IC50 (MDA MB 231 viability, Hill-slope analysis)
METRIC: IC50

Look up IC50 for this compound: "CCCCOC(=O)NS(=O)(=O)c1ccc(OC(F)(F)F)cc1-c1ccc(Cn2ccnc2)cn1"
58.2 nM
